Molecular target: YES1 (Homo sapiens, UniProt P07947)
Sequence (P07947 whole entry, species assumed): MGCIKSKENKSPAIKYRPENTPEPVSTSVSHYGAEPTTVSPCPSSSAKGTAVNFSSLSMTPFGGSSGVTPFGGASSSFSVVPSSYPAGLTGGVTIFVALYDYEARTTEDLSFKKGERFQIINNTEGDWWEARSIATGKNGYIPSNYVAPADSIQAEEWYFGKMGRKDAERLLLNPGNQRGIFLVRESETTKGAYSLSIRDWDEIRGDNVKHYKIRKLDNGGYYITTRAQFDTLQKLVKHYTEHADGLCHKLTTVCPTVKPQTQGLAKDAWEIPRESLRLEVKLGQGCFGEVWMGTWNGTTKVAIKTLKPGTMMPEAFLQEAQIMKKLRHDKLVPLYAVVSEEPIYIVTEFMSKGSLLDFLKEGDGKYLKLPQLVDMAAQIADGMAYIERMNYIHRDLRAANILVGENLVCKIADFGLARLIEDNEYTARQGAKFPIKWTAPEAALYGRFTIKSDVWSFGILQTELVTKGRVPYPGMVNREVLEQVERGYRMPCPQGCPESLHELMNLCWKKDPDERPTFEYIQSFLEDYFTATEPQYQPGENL
Assay: Kinase profiling YES1
Format: biochemical
Conditions: 100 micromolar inhibitor concentration; 100 is no change
Quantity: residual kinase activity, YES1
Please give the numeric answer without any surrounding text.

Reference set (3 entries):
O=C(Nc1nc2cc(O)ccc2s1)c1ccncc1 = 82
CC(=O)Nc1nc2cc(C)ccc2s1 = 104
CC(=O)Nc1nc2ccccc2s1 = 93

// moving on: another record for residual kinase activity, YES1
Prompt line: For the molecule "O=C(Nc1nc2cc(O)ccc2s1)c1cccnc1" , give its reported residual kinase activity, YES1.
Response line: 91

----------
Molecular target: CAMKKb (Homo sapiens)
Sequence (Q96RR4 whole entry, species assumed): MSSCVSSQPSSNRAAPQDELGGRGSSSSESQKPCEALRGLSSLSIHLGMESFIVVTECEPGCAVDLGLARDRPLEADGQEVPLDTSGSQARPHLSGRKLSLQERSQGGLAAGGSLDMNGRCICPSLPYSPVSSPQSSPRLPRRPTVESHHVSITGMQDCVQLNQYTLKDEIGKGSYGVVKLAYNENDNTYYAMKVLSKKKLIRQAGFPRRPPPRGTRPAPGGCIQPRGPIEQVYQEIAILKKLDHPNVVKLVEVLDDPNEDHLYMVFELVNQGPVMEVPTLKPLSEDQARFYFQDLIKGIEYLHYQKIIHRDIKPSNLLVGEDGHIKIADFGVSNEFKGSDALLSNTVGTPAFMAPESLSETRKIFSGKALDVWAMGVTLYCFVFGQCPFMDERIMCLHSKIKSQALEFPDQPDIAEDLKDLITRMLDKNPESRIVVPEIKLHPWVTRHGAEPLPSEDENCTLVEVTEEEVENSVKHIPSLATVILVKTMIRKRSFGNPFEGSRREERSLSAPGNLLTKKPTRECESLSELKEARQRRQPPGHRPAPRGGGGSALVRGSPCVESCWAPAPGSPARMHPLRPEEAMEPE
Assay: Kinase profiling CAMKKb
Type: biochemical
Settings: 100 micromolar inhibitor concentration; 100 is no change; read-out: residual kinase activity, CAMKKb
Threshold check on remaining activity at 100 µM: strictly below 60% is Yes; on or above 60% is No.

Below are worked cases with known answers.
CC(=O)Nc1nc2ccc(C#N)cc2s1 = Yes
CC(=O)Nc1nc2ccc(C(F)(F)F)cc2s1 = Yes
CC(=O)Nc1nc2cc(F)ccc2s1 = No
CC(=O)Nc1nc2cc(C(F)(F)F)ccc2s1 = No
CC(=O)Nc1nc2ccc(O)cc2s1 = Yes

Prompt line: Criterion: remaining activity at 100 µM strictly below 60%. Is it met by "CC(=O)Nc1nc2ccc([N+](=O)[O-])cc2s1" ?
Response line: No

Prompt line: Criterion: remaining activity at 100 µM strictly below 60%. Is it met by "COc1ccc2sc(NC(C)=O)nc2c1" ?
Response line: No

----------
Molecular target: ERK1 (Homo sapiens, UniProt P27361)
Sequence (P27361 whole entry, species assumed): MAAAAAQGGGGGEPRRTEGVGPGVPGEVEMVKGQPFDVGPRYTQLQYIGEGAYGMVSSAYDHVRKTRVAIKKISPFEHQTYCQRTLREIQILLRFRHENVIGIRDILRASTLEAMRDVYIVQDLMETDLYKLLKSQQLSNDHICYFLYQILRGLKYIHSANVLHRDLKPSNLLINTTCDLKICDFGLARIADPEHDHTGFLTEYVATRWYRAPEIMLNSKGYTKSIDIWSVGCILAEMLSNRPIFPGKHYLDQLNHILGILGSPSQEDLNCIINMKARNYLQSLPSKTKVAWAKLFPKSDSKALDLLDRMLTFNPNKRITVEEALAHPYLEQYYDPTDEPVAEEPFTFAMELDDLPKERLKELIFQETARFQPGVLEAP
Assay: Kinase profiling ERK1
Assay type: biochemical
Conditions: 100 micromolar inhibitor concentration; 100 is no change; read-out: residual kinase activity, ERK1
Quantity: remaining activity at 100 µM (%)
Enter your answer as a number in %; do not include the unit.

Reference set (2 entries):
COc1ccc2sc(NC(C)=O)nc2c1 = 87
CC(=O)Nc1nc2ccc(O)cc2s1 = 65

Prompt line: For the compound "CC(=O)Nc1nc2ccc(C#N)cc2s1" , give its reported remaining activity at 100 µM.
Response line: 97

Prompt line: For the compound "CC(=O)Nc1nc2cc(C(F)(F)F)ccc2s1" , give its reported remaining activity at 100 µM.
Response line: 83

Prompt line: For the compound "CC(=O)Nc1nc2cc(F)ccc2s1" , give its reported remaining activity at 100 µM.
Response line: 90

Prompt line: For the compound "CC(=O)Nc1nc2ccc(C(F)(F)F)cc2s1" , give its reported remaining activity at 100 µM.
Response line: 100

----------
Target: Aurora A (Homo sapiens)
Sequence (O14965 whole entry): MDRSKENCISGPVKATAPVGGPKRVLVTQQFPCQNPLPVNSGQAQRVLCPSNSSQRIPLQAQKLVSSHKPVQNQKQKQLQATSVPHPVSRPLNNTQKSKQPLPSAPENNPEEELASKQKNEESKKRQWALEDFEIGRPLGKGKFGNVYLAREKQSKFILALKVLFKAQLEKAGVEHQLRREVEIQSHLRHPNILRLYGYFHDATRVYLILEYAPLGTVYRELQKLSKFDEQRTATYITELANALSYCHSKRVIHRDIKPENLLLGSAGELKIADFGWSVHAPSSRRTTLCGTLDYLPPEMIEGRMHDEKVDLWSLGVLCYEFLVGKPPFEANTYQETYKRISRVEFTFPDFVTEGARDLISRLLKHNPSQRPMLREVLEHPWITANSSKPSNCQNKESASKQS
Assay: Kinase profiling Aurora A
Type: biochemical
Details: 100 micromolar inhibitor concentration; 100 is no change
Answer 0 (no) if residual kinase activity, Aurora A is under 100, and 1 (yes) if it is 100 or more.

CC(=O)Nc1nc2cc(C)ccc2s1 = 1 (yes)
O=C(Nc1nc2ccc(O)cc2s1)c1ccccc1 = 0 (no)

Prompt line: Reported residual kinase activity, Aurora A reaches at least 100 for "O=C(Nc1nc2cc(O)ccc2s1)c1ccncc1" ?
Response line: 1 (yes)

Prompt line: Reported residual kinase activity, Aurora A reaches at least 100 for "O=C(Nc1nc2cc(O)ccc2s1)c1ccccn1" ?
Response line: 0 (no)

----------
Molecular target: TTBK2 (Homo sapiens)
Experiment: Kinase profiling TTBK2
Type: biochemical
Conditions: 100 micromolar inhibitor concentration; 100 is no change
Answer class 0 if residual kinase activity, TTBK2 is under 70, and class 1 if it is 70 or more.

Below are worked cases with known answers.
O=C(Nc1nc2ccc(O)cc2s1)c1ccncc1 = class 1
O=C(Nc1nc2cc(O)ccc2s1)c1cccnc1 = class 1
O=C(Nc1nc2ccc(O)cc2s1)c1cccnc1 = class 0
O=C(Nc1nc2ccc(O)cc2s1)c1ccccc1 = class 0
CC(=O)Nc1nc2ccccc2s1 = class 1

Prompt line: Reported residual kinase activity, TTBK2 reaches at least 70 for "CC(=O)Nc1nc2cc(C)ccc2s1" ?
Response line: class 1

Prompt line: Reported residual kinase activity, TTBK2 reaches at least 70 for "O=C(Nc1nc2ccc(O)cc2s1)c1ccccn1" ?
Response line: class 1

Prompt line: Reported residual kinase activity, TTBK2 reaches at least 70 for "O=C(Nc1nc2cc(O)ccc2s1)c1ccncc1" ?
Response line: class 1

----------
Target: EPH-B2 (Homo sapiens, UniProt P29323)
Sequence (P29323 19-1055, species assumed): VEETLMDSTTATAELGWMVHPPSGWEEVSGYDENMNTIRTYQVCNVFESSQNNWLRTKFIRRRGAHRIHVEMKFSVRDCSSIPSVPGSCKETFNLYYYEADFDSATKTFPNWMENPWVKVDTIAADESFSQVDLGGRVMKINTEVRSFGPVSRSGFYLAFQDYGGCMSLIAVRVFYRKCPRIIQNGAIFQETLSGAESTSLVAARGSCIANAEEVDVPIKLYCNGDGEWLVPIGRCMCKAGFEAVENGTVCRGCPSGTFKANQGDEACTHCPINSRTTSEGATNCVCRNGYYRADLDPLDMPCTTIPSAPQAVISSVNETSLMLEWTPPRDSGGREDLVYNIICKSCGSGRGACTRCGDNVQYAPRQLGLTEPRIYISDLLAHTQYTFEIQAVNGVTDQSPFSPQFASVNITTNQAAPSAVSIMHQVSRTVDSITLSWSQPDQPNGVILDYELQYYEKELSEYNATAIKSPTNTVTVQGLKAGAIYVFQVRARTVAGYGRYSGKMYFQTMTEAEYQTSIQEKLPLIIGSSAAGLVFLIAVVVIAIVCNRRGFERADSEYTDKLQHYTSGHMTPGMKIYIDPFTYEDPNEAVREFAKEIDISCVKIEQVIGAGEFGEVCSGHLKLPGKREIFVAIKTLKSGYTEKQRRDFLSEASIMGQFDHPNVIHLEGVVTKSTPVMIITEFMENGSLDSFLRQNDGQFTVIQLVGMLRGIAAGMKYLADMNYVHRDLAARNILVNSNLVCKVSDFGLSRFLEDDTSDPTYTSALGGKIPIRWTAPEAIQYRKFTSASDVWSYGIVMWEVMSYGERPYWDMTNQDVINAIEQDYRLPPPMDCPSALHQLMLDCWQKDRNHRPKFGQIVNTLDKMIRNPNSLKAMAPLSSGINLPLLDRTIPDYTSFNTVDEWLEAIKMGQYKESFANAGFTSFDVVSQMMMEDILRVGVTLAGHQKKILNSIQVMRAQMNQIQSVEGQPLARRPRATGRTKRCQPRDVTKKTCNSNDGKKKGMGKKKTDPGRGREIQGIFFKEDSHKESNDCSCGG
Experiment: Kinase profiling EPH-B2
Assay type: biochemical
Conditions: 100 micromolar inhibitor concentration; 100 is no change; read-out: residual kinase activity, EPH-B2
Each entry below carries its reported remaining activity at 100 µM.
Enter your answer as a number in %; do not include the unit.

Reference set (3 entries):
CC(=O)Nc1nc2cc(C(F)(F)F)ccc2s1 = 98
COc1ccc2sc(NC(C)=O)nc2c1 = 96
CC(=O)Nc1nc2ccc(C(F)(F)F)cc2s1 = 38

Prompt line: For the compound "CC(=O)Nc1nc2ccc(O)cc2s1" , give its reported remaining activity at 100 µM.
Response line: 59

Prompt line: For the compound "CC(=O)Nc1nc2ccc(C#N)cc2s1" , give its reported remaining activity at 100 µM.
Response line: 42

Prompt line: For the compound "CC(=O)Nc1nc2cc(F)ccc2s1" , give its reported remaining activity at 100 µM.
Response line: 114

----------
Biological target: MAPKAP-K3 (Homo sapiens, UniProt Q16644)
Sequence (Q16644 whole entry, species assumed): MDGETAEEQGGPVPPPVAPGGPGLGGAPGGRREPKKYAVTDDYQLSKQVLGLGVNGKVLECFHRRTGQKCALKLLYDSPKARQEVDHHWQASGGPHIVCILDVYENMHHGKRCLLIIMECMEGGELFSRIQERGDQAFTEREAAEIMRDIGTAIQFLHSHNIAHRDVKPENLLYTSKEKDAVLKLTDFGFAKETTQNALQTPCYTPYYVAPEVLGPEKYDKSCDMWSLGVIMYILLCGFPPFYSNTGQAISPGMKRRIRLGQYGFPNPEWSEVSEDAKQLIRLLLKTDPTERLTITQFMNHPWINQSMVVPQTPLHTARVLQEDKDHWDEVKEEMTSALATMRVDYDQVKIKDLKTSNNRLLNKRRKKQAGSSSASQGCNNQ
Test: Kinase profiling MAPKAP-K3
Assay type: biochemical
Conditions: 100 micromolar inhibitor concentration; 100 is no change
Source text: Any value less that 25 is considered to be highly significant inhibition.
Each entry below carries its reported residual kinase activity, MAPKAP-K3.
Please give the numeric answer without any surrounding text.

Prompt line: For the compound "CC(=O)Nc1nc2ccccc2s1" , give its reported residual kinase activity, MAPKAP-K3.
Response line: 61

Prompt line: For the compound "O=C(Nc1nc2ccc(O)cc2s1)c1ccccn1" , give its reported residual kinase activity, MAPKAP-K3.
Response line: 31

Prompt line: For the compound "O=C(Nc1nc2ccc(O)cc2s1)c1ccncc1" , give its reported residual kinase activity, MAPKAP-K3.
Response line: 51

Prompt line: For the compound "O=C(Nc1nc2cc(O)ccc2s1)c1ccccn1" , give its reported residual kinase activity, MAPKAP-K3.
Response line: 62

Prompt line: For the compound "O=C(Nc1nc2cc(O)ccc2s1)c1ccncc1" , give its reported residual kinase activity, MAPKAP-K3.
Response line: 68

Prompt line: For the compound "O=C(Nc1nc2ccc(O)cc2s1)c1cccnc1" , give its reported residual kinase activity, MAPKAP-K3.
Response line: 38

Prompt line: For the compound "CC(=O)Nc1nc2cc(C)ccc2s1" , give its reported residual kinase activity, MAPKAP-K3.
Response line: 106

Prompt line: For the compound "O=C(Nc1nc2cc(O)ccc2s1)c1cccnc1" , give its reported residual kinase activity, MAPKAP-K3.
Response line: 97

Prompt line: For the compound "O=C(Nc1nc2ccc(O)cc2s1)c1ccccc1" , give its reported residual kinase activity, MAPKAP-K3.
Response line: 92

----------
Biological target: MARK4 (Homo sapiens)
Sequence (Q96L34 whole entry, species assumed): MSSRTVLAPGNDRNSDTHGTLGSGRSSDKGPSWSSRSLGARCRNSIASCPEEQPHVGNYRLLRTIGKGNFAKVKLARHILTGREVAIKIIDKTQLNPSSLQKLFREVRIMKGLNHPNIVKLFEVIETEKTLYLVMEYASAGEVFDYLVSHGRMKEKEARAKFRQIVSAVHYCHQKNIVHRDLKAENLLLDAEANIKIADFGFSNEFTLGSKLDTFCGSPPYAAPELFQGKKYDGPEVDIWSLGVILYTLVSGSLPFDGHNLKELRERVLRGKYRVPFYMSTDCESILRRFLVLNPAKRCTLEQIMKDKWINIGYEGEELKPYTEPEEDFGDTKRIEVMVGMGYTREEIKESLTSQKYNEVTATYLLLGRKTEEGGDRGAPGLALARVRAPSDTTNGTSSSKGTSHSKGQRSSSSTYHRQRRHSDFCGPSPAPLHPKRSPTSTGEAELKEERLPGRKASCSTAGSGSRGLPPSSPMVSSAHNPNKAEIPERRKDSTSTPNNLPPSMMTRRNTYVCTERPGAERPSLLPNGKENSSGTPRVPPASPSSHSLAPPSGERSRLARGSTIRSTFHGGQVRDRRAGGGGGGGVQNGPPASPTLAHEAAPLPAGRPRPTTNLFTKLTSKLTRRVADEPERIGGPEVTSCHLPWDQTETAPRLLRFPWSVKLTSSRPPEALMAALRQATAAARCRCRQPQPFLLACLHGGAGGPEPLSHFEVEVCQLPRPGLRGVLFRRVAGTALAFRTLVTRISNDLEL
Test: Kinase profiling MARK4
Format: biochemical
Conditions: 100 micromolar inhibitor concentration; 100 is no change; read-out: residual kinase activity, MARK4
Source text: Any value less that 25 is considered to be highly significant inhibition.
Quantity: remaining activity at 100 µM (%)
Enter your answer as a number in %; do not include the unit.

Reference set (3 entries):
CC(=O)Nc1nc2cc(F)ccc2s1 = 86
CC(=O)Nc1nc2ccc(C(F)(F)F)cc2s1 = 66
CC(=O)Nc1nc2ccc(O)cc2s1 = 66

Prompt line: For the compound "COc1ccc2sc(NC(C)=O)nc2c1" , give its reported remaining activity at 100 µM.
Response line: 100

Prompt line: For the compound "CC(=O)Nc1nc2ccc(C#N)cc2s1" , give its reported remaining activity at 100 µM.
Response line: 51

Prompt line: For the compound "CC(=O)Nc1nc2cc(C(F)(F)F)ccc2s1" , give its reported remaining activity at 100 µM.
Response line: 97

----------
Target: PKD1 (Homo sapiens, UniProt Q15139)
Sequence (Q15139 whole entry): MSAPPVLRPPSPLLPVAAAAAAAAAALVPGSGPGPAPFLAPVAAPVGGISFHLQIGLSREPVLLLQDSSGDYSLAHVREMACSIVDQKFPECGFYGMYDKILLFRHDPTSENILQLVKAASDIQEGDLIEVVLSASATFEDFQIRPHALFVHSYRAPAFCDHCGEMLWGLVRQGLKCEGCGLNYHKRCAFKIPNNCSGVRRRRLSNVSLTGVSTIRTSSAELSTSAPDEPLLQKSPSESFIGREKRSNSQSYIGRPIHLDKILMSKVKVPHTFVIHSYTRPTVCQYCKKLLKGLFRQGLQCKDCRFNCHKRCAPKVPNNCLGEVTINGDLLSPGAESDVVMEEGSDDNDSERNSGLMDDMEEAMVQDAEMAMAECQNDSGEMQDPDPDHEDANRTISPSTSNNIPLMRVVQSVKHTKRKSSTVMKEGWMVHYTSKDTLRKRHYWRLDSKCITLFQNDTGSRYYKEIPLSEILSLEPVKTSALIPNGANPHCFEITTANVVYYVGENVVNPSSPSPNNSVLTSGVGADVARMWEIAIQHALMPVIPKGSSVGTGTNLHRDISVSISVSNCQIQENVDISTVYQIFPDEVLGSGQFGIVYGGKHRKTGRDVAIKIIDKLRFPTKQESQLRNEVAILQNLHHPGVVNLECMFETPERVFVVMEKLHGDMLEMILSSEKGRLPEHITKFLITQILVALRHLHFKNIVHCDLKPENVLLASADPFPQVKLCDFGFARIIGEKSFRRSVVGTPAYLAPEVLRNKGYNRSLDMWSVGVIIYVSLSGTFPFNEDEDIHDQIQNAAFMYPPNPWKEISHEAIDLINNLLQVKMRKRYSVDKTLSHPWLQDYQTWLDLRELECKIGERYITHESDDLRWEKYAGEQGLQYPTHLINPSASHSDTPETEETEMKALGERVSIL
Experiment: Kinase profiling PKD1
Type: biochemical
Conditions: 100 micromolar inhibitor concentration; 100 is no change; read-out: residual kinase activity, PKD1
Threshold check on remaining activity at 100 µM: strictly below 70% is Fulfilled; on or above 70% is Not fulfilled.

CC(=O)Nc1nc2ccc(O)cc2s1 = Fulfilled
CC(=O)Nc1nc2ccc([N+](=O)[O-])cc2s1 = Not fulfilled
CC(=O)Nc1nc2ccc(C(F)(F)F)cc2s1 = Not fulfilled
CC(=O)Nc1nc2cc(C(F)(F)F)ccc2s1 = Not fulfilled

Prompt line: Criterion: remaining activity at 100 µM strictly below 70%. Is it met by "COc1ccc2sc(NC(C)=O)nc2c1" ?
Response line: Fulfilled

Prompt line: Criterion: remaining activity at 100 µM strictly below 70%. Is it met by "CC(=O)Nc1nc2ccc(C#N)cc2s1" ?
Response line: Not fulfilled

Prompt line: Criterion: remaining activity at 100 µM strictly below 70%. Is it met by "CC(=O)Nc1nc2cc(F)ccc2s1" ?
Response line: Fulfilled
